tested on: DU-145 prostate; experiment: NCI tumour cell line growth inhibition, 384-well format
TGI overview
Reply with just the number (in µM).

TGI for Clc1ccc(N2CCC(N3CCCC3)CC2)cc1-c1nc2ccccc2[nH]1 is 32.5

Noted for O=C(c1ccccc1O)c1[nH]c(Cl)c(Cl)c1-n1c(C(=O)c2ccccc2O)cc(Cl)c1Cl : its TGI reads 8.4
